# credit: patent US20200216493A1

Reported MIC C. difficile for target or system C. difficile, by entry.
Measure: MIC C. difficile (µg/mL)

- Line Notation: "CC[C@H](C)[C@H](NC(=O)[C@@H](Cc1ccccc1)NC)C(=O)N[C@@H](CO)C(=O)N[C@H](CCC(N)=O)C(=O)N[C@@H](C(=O)N[C@H](C(=O)N[C@@H](CO)C(=O)N[C@H]1C(=O)N[C@@H](C)C(=O)N[C@@H](CCCCN)C(=O)N[C@@H]([C@@H](C)CC)C(=O)O[C@H]1C)[C@@H](C)CC)[C@@H](C)CC"
  Measure: "MIC C. difficile"
  Units: "µg/mL"
  Observed Result: 0.12
- Line Notation: "CC[C@H](C)[C@H](NC(=O)[C@@H](Cc1ccccc1)NC)C(=O)N[C@@H](CO)C(=O)N[C@H](CCC(N)=O)C(=O)N[C@@H](C(=O)N[C@H](C(=O)N[C@@H](CO)C(=O)N[C@H]1C(=O)N[C@@H](C)C(=O)N[C@@H](CCCNC(=N)N)C(=O)N[C@@H]([C@@H](C)CC)C(=O)O[C@H]1C)[C@@H](C)CC)[C@@H](C)CC"
  Measure: "MIC C. difficile"
  Units: "µg/mL"
  Observed Result: 0.12
- Line Notation: "CC[C@@H](C)[C@@H](NC(=O)[C@@H](CCC(N)=O)NC(=O)[C@H](CO)NC(=O)[C@@H](NC(=O)[C@@H](Cc1ccccc1)NC)[C@@H](C)CC)C(=O)N[C@H](C(=O)N[C@@H](CO)C(=O)N[C@H]1C(=O)N[C@@H](C)C(=O)N[C@@H](CCCCN)C(=O)N[C@@H]([C@@H](C)CC)C(=O)O[C@H]1C)[C@@H](C)CC"
  Measure: "MIC C. difficile"
  Units: "µg/mL"
  Observed Result: 0.25
- Line Notation: "CC[C@H](C)[C@H](NC(=O)[C@@H](Cc1ccccc1)NC)C(=O)N[C@@H](CO)C(=O)N[C@H](CCC(N)=O)C(=O)N[C@@H](C(=O)N[C@H](C(=O)N[C@@H](CO)C(=O)N[C@H]1C(=O)N[C@@H](C)C(=O)N[C@@H](CCCCNC(=N)NC)C(=O)N[C@@H]([C@@H](C)CC)C(=O)O[C@H]1C)[C@@H](C)CC)[C@@H](C)CC"
  Measure: "MIC C. difficile"
  Units: "µg/mL"
  Observed Result: 0.03
